ASSAYED_TARGET: T1, rhTrkB-ECD (R&D #397-TR/CF) (human, UniProt Q16620 32-430)
T1 construct: extracellular domain; Bought protein; also called human TrkB-extracellular domain protein; human TrkB ectodomain protein
T1 sequence (Q16620 32-430): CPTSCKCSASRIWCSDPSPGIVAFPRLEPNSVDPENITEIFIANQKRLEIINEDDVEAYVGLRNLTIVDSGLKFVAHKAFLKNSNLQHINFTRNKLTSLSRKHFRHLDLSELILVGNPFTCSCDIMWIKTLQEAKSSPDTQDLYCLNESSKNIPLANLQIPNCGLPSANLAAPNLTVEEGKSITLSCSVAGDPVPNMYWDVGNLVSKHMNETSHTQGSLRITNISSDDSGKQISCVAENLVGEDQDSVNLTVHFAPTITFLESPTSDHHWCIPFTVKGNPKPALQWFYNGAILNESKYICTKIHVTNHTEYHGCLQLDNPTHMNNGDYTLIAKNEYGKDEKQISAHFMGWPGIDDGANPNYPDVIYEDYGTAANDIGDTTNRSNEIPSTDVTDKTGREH
PROCEDURE_TEXT: competition ELISA on coated rhTrkB-ECD; competitor biotinylated chimeric TOA-1 at 25 ng/ml
Measured IC50 accompanies every entry in the list below.
Just the number in nM, nothing appended.

chimeric TOA-1 antibody (antibody, V domains shown, also called chiTOA-1; VH mouse / VL mouse) VH: EVQLQQSGPELVKPGASMKISCKTSGYSFTAYFMNWVKQSHGKSLEWIGRINPNNGDTFYTQKFKGKATLTVDKSSNTAHMELLSLTSEDSAIYYCGRRDYFGAMDYWGQGTSVTVSS VL: AIVLIQSPATLSVTPGDSVSLSCRASQTISNNLHWYQQKSHESPRLLIKSASLAISGIPSRFSGSGSGTDFTLSISSVETEDFGMYFCQQSNSWPNTFGGGTKLEIK ... 3.6

Q: Looking for the measured IC50 of TOA-1 variant VH mouse / VL human v1.1 (antibody, V domains shown, Human IgG from COS-1 conditioned medium; constant regions not restated; also called mu / hu v1.1) VH: EVQLQQSGPELVKPGASMKISCKTSGYSFTAYFMNWVKQSHGKSLEWIGRINPNNGDTFYTQKFKGKATLTVDKSSNTAHMELLSLTSEDSAIYYCGRRDYFGAMDYWGQGTSVTVSS VL: DIQMTQSPSSLSASVGDRVTITCRASQTISNNLHWYQQKPGESPKLLIKSASLAISGVPSRFSGSGSGTDFTLTISSLQPEDFATYYCQQSNSWPNTFGGGTKVEIK , can you help?
A: 13.6
